settings: in ethanol, 293.15 K
outcome.measure: solubility (mole fraction)
Form: value (number only, do not type unit).

Prompt: Please report the recorded solubility (mole fraction) for "CC(C)(C)OC(=O)N1CCC[C@H]1C(=O)O" .
Completion: 0.111

* * *

details: in methyl acetate, 283.15 K
outcome.measure: solubility (mole fraction)
The answer should be a number; do not append a unit.

Prompt: I'd like to know its solubility (mole fraction). The molecule in question is "CC(C)(C)OC(=O)N1CCC[C@H]1C(=O)O"
Completion: 0.0252

* * *

details: in sec-butanol, 323.15 K
outcome.measure: solubility (mole fraction)

Prompt: So what does the record say about solubility (mole fraction) for "CC(C)(C)OC(=O)N1CCC[C@H]1C(=O)O" ?
Completion: 0.232

Reference for the values: BigSolDB 2.1
